Numbers sourced from the supplement of paper PMC10307832.

test system: NCI-H2405; experiment: relative viability (nuclei count vs DMSO), 5 days (fraction); higher = more cells survive; conditions: first compound 0.253 µM
As shown below, each of these compounds has a reported relative viability value.
Measurement Name: relative viability

[[record]]
compound = "C=C1C(=O)O[C@@H](CCCCCCCC)[C@@H]1C(=O)O [C-75] + O=C(c1cc(Cc2n[nH]c(=O)c3ccccc23)ccc1F)N1CCN(C(=O)C2CC2)CC1 [Olaparib] (partner 8 µM)"
reading = 0.734

[[record]]
compound = "C=C1C(=O)O[C@@H](CCCCCCCC)[C@@H]1C(=O)O [C-75] + N=C(N)NC(=N)NCCc1ccccc1 [Phenformin] (partner 250 µM)"
reading = 0.331

[[record]]
compound = "Oc1nc(-c2ccc(C(F)(F)F)cc2)nc2c1CSCC2 [XAV939] + C[C@@H](Oc1cc(-c2cnn(C3CCNCC3)c2)cnc1N)c1c(Cl)ccc(F)c1Cl [Crizotinib] (partner 1 µM)"
reading = 0.816

